System: Wolbachia pipientis
Experiment Notes: Anti-Wolbachia Cell-Based Screen
Type: functional
Set-up: scale not given: in the data most compounds retested in dose-response had high values
Conditions Used: 5 µM
Hit rate of the full screen: of about 48,000 compounds, about 13,000 (27%) showed an effect of 50% or more. The list shows a part of the results.
# Percent Effect listing for each entry below
Assay Readout: Percent Effect (%)

Compound	Numeric Result
O=c1cc(CN2CCCC(CCc3c(F)cccc3F)C2)[nH]c(=O)[nH]1 (configuration not stated)	-9.358
N#Cc1ncn(CC(=O)Nc2cc(Cl)ccc2F)n1	-2.838
O=C(CCNC(=O)c1ccoc1)Nc1ccccc1F	-1.29
Nc1nccc(N[C@H]2CN(CC(=O)NC3CCCCC3)C[C@@H]2C2CC2)n1	-21.82
N#Cc1ncn(CCC(=O)Nc2cccc(Cl)c2)n1	93.03
N#Cc1ncn(CCC(=O)Nc2ccc(Cl)cc2F)n1	11.11
c1n[nH]cc1CCCN1CCC(OC2CCCCC2)CC1	7.391
O=C(CCc1nc(Cl)n[nH]1)N1CCC2(CCCN(CC3CCC3)C2=O)C1 (configuration not stated)	-5.22
O=C(CN1CCOCC1)N1CCC2(CCCN(C3CCOCC3)C2=O)C1 (configuration not stated)	102.1
N#Cc1ncn(CCS(=O)(=O)c2ccc(Cl)cc2)n1	-0.6249
N#Cc1ncn(CCC(=O)Nc2ccc(F)c(F)c2)n1	100.3
CC(=O)N(C)CC(=O)Nc1cnc(-n2ccnc2)nc1	3.406
